Target: recombinant human DAO (diamine oxidase) (Homo sapiens, UniProt P19801)
Construct: purchased R&D systems
Sequence (P19801 20-751): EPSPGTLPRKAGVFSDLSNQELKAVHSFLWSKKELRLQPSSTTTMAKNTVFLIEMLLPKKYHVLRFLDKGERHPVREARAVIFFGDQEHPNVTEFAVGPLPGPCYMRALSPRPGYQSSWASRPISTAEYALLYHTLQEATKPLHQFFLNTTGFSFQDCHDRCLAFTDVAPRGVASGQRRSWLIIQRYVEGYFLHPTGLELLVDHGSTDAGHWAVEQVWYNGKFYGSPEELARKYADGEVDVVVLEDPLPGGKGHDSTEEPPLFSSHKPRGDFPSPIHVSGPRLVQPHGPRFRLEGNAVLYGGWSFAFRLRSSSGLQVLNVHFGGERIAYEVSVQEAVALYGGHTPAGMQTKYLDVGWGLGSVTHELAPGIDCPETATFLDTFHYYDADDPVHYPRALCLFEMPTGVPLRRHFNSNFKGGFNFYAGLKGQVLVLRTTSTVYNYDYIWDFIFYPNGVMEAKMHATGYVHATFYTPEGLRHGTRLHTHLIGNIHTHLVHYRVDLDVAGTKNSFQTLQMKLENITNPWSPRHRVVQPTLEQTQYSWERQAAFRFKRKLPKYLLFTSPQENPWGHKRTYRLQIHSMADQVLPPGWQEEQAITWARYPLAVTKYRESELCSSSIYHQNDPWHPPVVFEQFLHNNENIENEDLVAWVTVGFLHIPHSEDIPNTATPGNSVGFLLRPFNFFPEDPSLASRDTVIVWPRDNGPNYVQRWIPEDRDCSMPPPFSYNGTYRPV
Experiment: Amplex Red HRP-coupled amine oxidase assay, recombinant human DAO
Type: biochemical
Settings: 1 mM putrescine substrate, read-out: Inhibitory activity (IC50, nM) DAO
Where a name gives a salt, the structure may show the parent alone.
MEASURED_ATTRIBUTE: IC50 (nM)

MOLECULE: CNS(=O)(=O)c1cccc(-c2cccc3c2nnn3C/C(F)=C/CN)c1 [Example 111, hydrochloride]
UNIT_ABBREV: nM
IC50: 30700

(A) COC(=O)c1cc(-c2ccc(OC)c(S(=O)(=O)N(C)C)c2)c2ncn(C/C(F)=C/CN)c2c1 [Example 21, hydrochloride]
(B) Cc1cc(-c2cc(C#N)cc3c2ncn3C/C(F)=C/CN)n(C)n1 [Example 194, hydrochloride]
(C) NC/C=C(\F)Cn1cnc2c(-c3cccnc3)cc(C(F)(F)F)cc21 [Example 172, hydrochloride]
(D) CNS(=O)(=O)c1ccc(OC)c(-c2cc(C#N)cc3c2ncn3C/C(F)=C/CN)c1 [Example 183, hydrochloride]
Q: Please list these in order of increasing IC50. Thank you! Form field (ranking): labels in requested order.
A: A, D, C, B
(A: 380 nM, D: 1820 nM, C: 3520 nM, B: 7590 nM)

(P) CNS(=O)(=O)c1cccc(-c2cc(C(=O)OC)cc3c2nc(C)n3C/C(F)=C/CN)c1 [Example 73, hydrochloride]
(Q) Cc1nc2c(-c3cccc(S(=O)(=O)N4CCCC4)c3)cccc2n1C/C(F)=C/CN [Example 60, hydrochloride]
(R) COC(=O)c1cc(-c2cc(S(=O)(=O)C(F)(F)F)ccc2C)c2ncn(C/C(F)=C/CN)c2c1 [Example 35, hydrochloride]
(S) N#Cc1cc(-c2cncnc2)c2nnn(C/C(F)=C/CN)c2c1 [Example 210, hydrochloride]
Q: Arrange the 4 molecules from largest to smallest IC50. Give your ranking as a list of the labels in the requested order.
A: R, P, Q, S

(P) N#Cc1cc(-c2cc(CO)ccc2F)c2nnn(C/C(F)=C/CN)c2c1 [Example 206, hydrochloride]
(Q) COC(=O)c1cc(-c2cccc(S(=O)(=O)NC3CC3)c2)c2ncn(C/C(F)=C/CN)c2c1 [Example 29, hydrochloride]
(R) COC(=O)c1cc(-c2cccc(P(C)(C)=O)c2)c2ncn(C/C(F)=C/CN)c2c1 [Example 38, hydrochloride]
(S) Cc1nc2c(-c3cccc(S(=O)(=O)N(C)C)c3)cccc2n1C/C(F)=C/CN [Example 56, hydrochloride]
(T) COC(=O)c1cc(-c2cc(S(=O)(=O)NC3CC3)ccc2OC)c2nnn(C/C(F)=C/CN)c2c1 [Example 120, hydrochloride]
Q: List from greatest to least IC50. Answer by listing the labels in the order asked for.
A: R, T, P, Q, S

* * *

Molecular target: recombinant human Lysyl Oxidase-Like 2 (LOXL2) (Homo sapiens, UniProt Q9Y4K0)
Construct: purchased R&D systems
Sequence (Q9Y4K0 26-774): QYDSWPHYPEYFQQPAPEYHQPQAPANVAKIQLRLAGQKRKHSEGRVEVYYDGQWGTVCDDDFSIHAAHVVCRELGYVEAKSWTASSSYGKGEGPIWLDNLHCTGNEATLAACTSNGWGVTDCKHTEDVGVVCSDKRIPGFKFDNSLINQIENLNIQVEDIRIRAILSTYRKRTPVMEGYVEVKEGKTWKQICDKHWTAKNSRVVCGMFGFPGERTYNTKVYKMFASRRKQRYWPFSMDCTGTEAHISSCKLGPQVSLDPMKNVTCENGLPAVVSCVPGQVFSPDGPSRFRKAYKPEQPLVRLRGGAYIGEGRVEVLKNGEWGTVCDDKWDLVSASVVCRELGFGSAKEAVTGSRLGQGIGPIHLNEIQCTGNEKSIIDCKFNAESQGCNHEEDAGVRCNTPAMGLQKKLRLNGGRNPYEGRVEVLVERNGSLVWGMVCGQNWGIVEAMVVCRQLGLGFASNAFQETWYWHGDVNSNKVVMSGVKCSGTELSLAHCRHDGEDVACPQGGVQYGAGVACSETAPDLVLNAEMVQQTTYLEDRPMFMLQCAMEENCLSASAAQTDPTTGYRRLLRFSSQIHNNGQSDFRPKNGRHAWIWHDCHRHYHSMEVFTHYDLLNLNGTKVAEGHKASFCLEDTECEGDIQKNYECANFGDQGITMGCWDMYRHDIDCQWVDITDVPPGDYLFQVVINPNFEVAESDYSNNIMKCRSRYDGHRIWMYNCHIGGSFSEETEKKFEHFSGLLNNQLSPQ
Experiment: Amplex Red HRP-coupled amine oxidase assay, recombinant human LOXL2
Format: biochemical
Settings: 60 min incubation with enzyme at 37° C., putrescine substrate, read-out: Inhibitory activity (IC50, nM) human LOXL2
Structures can show the parent of a compound that is named as a salt.
MEASURED_ATTRIBUTE: IC50 (nM)

MOLECULE: COC(=O)c1cc(-c2cccc(S(=O)(=O)N3CCCC3)c2)c2nnn(C/C(F)=C/CN)c2c1 [Example 116, hydrochloride]
REPORTED_MEASUREMENT: 52.4
--
MOLECULE: COC(=O)c1cc(-c2cccc(S(=O)(=O)N(C)C)c2)c2ncn(C/C(F)=C/CN)c2c1 [Example 31, hydrochloride]
REPORTED_MEASUREMENT: 19.4

(a) CN(C)S(=O)(=O)c1cccc(-c2cccc3c2nnn3C/C(F)=C/CN)c1 [Example 112, hydrochloride]
(b) CCN(CC)S(=O)(=O)c1ccc(OC)c(-c2cc(C(=O)NOC)cc3c2nnn3C/C(F)=C/CN)c1 [Example 135, hydrochloride]
(c) COC(=O)c1cc(-c2cc(S(=O)(=O)C(F)(F)F)ccc2C)c2nnn(C/C(F)=C/CN)c2c1 [Example 128, hydrochloride]
Q: Would you mind ranking these molecules by ascending IC50? # list labels per requested ordering
A: a, b, c

* * *

Molecular target: recombinant human DAO (diamine oxidase) (Homo sapiens, UniProt P19801)
Construct: purchased R&D systems
Experiment: Amplex Red HRP-coupled amine oxidase assay, recombinant human DAO
Assay type: biochemical
Conditions: 1 mM putrescine substrate, read-out: Inhibitory activity (IC50, nM) DAO
Counter-ions that a name gives are not always drawn.
MEASURED_ATTRIBUTE: IC50 (nM)

Illustrative cases are given below, each with its answer.
COMPOUND: CN(C)S(=O)(=O)c1cccc(-c2cc(C(F)(F)F)cc3c2nnn3C/C(F)=C/CN)c1 [Example 196, hydrochloride]
MEASURED_ON: recombinant human DAO (diamine oxidase) (Homo sapiens, UniProt P19801)
MEASURED_ATTRIBUTE: IC50
REPORTED_MEASUREMENT: 3150
//
COMPOUND: COC(=O)c1cc(-c2cccc(S(=O)(=O)N3CCC(F)(F)C3)c2)c2ncn(C/C(F)=C/CN)c2c1 [Example 22, hydrochloride]
MEASURED_ON: recombinant human DAO (diamine oxidase) (Homo sapiens, UniProt P19801)
MEASURED_ATTRIBUTE: IC50
REPORTED_MEASUREMENT: 5070
//
COMPOUND: CCN(CC)S(=O)(=O)c1ccc(OC)c(-c2cc(C(=O)OC)cc3c2nnn3C/C(F)=C/CN)c1 [Example 119, hydrochloride]
MEASURED_ON: recombinant human DAO (diamine oxidase) (Homo sapiens, UniProt P19801)
MEASURED_ATTRIBUTE: IC50
REPORTED_MEASUREMENT: 14500
//
COMPOUND: CC(=O)c1ccc(F)c(-c2cc(C(F)(F)F)cc3c2ncn3C/C(F)=C/CN)c1 [Example 169, hydrochloride]
MEASURED_ON: recombinant human DAO (diamine oxidase) (Homo sapiens, UniProt P19801)
MEASURED_ATTRIBUTE: IC50
REPORTED_MEASUREMENT: 5400

(1) COC(=O)c1cc(-c2cccc(S(=O)(=O)N(C)C)c2)c2ncn(C/C(F)=C/CN)c2c1 [Example 31, hydrochloride]
(2) NC/C=C(\F)Cn1cnc2c(-c3cncc(Cl)c3)cc(C(F)(F)F)cc21 [Example 174, hydrochloride]
Q: Larger number for IC50: 1 , or 2 ? Write down the label of the entry you select.
A: 2
(2: 2210 nM, 1: 139 nM)

* * *

Target: recombinant human MAO-A (monoamine oxidase-A) (Homo sapiens, UniProt P21397)
Construct: purchased Sigma-Aldrich
Sequence (P21397 1-527): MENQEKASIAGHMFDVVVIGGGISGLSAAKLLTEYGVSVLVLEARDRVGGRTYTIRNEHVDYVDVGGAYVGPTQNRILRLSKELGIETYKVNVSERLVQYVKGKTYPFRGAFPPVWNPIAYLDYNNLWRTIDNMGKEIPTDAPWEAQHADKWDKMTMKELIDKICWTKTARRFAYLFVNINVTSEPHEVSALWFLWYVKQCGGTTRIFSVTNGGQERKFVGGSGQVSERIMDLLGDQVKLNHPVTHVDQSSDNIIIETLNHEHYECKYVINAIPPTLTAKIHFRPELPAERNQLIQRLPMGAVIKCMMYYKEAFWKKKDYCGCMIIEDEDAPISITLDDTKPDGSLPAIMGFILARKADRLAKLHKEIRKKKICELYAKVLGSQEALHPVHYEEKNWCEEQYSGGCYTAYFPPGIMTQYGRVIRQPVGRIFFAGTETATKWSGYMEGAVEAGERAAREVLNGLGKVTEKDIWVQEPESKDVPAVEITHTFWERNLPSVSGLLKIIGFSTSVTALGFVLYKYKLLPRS
Assay: Amplex Red HRP-coupled amine oxidase assay, recombinant human MAO-A
Format: biochemical
Conditions: 0.5 mM tyramine substrate, read-out: Inhibitory activity (IC50, nM) MAO-A
Counter-ions that a name gives are not always drawn.
MEASURED_ATTRIBUTE: IC50 (nM)

COMPOUND: NC/C=C(\F)Cn1cnc2c(-c3cccnc3)cc(C(F)(F)F)cc21 [Example 172, hydrochloride]
MEASURED_ON: recombinant human MAO-A (monoamine oxidase-A) (Homo sapiens, UniProt P21397)
REPORTED_MEASUREMENT: 17800

(P) COC(=O)c1cc(-c2cccc(S(=O)(=O)N(C)C)c2)c2ncn(C/C(F)=C/CN)c2c1 [Example 31, hydrochloride]
(Q) NC/C=C(\F)Cn1cnc2c(-c3cncc(F)c3)cc(C(F)(F)F)cc21 [Example 173, hydrochloride]
Q: Between the entries labelled P and Q , which has a larger IC50 value on record? Returns: label corresponding to the selected item.
A: P
(P: 24600 nM, Q: 15400 nM)
